Entry source: ChEMBL document CHEMBL5154921

target_under_test: Relaxin-3 receptor 1 (Homo sapiens)
assay_text: Antagonist activity at human RXFP3 expressed in CHO-K1 cells assessed as forskolin-induced cAMP accumulation measured after 30 mins in presence of relaxin-3 by TR-FRET assay
Assay type: functional, cell-based

# substance, unit_annotation, IC50
data = [
    ("H-RAAPYGVRLSGREFIRAVIFTSR-NH2", "nM", 504),
]

---

assay_text: AUCinfinity in Wistar rat brain at 10 mg/kg, ip measured upto 8 hrs post dose by LC-MS/MS analysis
Assay type: ADME, organism-based
Design: dose 10 mg/kg, time < 8 hrs, route ip
quantity_kind: AUC(0-inf) (ng·h/mL)

# molecule, result
measured = [
    ("O=C(Nc1ccc(-c2nc(-c3ccc(Cl)cc3)no2)cc1)C1CC(=O)N(Cc2ccco2)C1 (stereo unspecified)", 12.5),
]

---

Each item that follows carries a reported pIC50.
target_under_test: Relaxin-3 receptor 1 (Homo sapiens, UniProt Q9NSD7)
Sequence (Q9NSD7 whole entry): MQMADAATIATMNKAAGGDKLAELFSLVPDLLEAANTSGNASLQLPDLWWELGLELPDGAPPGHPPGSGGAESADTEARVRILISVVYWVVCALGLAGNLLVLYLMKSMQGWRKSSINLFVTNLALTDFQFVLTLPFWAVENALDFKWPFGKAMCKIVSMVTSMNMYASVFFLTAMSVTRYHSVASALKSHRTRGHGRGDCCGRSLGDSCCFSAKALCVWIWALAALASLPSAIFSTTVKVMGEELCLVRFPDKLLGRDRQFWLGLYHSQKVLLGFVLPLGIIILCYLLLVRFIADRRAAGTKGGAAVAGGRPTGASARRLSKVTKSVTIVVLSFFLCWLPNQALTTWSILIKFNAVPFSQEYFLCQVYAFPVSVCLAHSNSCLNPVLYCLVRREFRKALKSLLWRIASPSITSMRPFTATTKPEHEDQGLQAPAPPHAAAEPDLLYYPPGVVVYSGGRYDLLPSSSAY
assay_text: Antagonist activity at human RXFP3 expressed in CHO-K1 cells assessed as forskolin-induced cAMP accumulation measured after 30 mins in presence of relaxin-3 by TR-FRET assay
Format: functional, cell-based
pIC50: −log10 of the molar value.
quantity_kind: pIC50

# compound, quantity_kind, result
records = [
    ("Cc1ccc(-c2noc(-c3ccc(NC(=O)C4CC(=O)N(Cc5cccnc5)C4)cc3)n2)cc1 (stereo not given)", "pIC50", 5.67),
    ("Cc1ccc(-c2noc(-c3ccc(NC(=O)C4CC(=O)N(Cc5ccccc5F)C4)cc3)n2)cc1 (stereo not given)", "pIC50", "< 5.00"),
    ("Cc1ccc(-c2noc(-c3ccc(NC(=O)C4CC(=O)N(Cc5ccccn5)C4)cc3)n2)cc1 (stereo not given)", "pIC50", "< 5.00"),
    ("Cc1ccc(-c2noc(-c3ccc(NC(=O)C4CC(=O)N(CCc5ccccc5)C4)cc3)n2)cc1 (stereo not given)", "pIC50", "< 5.00"),
    ("Cc1ccc(-c2noc(-c3ccc(NC(=O)C4CC(=O)N(Cc5cccc(F)c5)C4)cc3)n2)cc1 (stereo not given)", "pIC50", "< 5.00"),
]

---

Each item that follows carries a reported pIC50.
target_under_test: Relaxin-3 receptor 1 (Homo sapiens)
assay_text: Antagonist activity at human RXFP3 expressed in CHO-K1 cells assessed as [35S]GTPgammaS binding incubated for 1 hr by [35S]GTP-gammaS binding assay
Assay type: functional, cell-based
pIC50: −log10 of the molar value.
quantity_kind: pIC50

# compound, result
rows = [
    ("O=C(Nc1ccc(-c2nc(-c3ccc(Cl)cc3)no2)cc1)C1CC(=O)N(Cc2ccco2)C1 (configuration not stated)", 5.34),
    ("O=C(Nc1ccc(-c2nc(-c3ccc(Cl)cc3)no2)cc1)C1CC(=O)N(Cc2cccnc2)C1 (configuration not stated)", 5.52),
]

---

target_under_test: Sigma intracellular receptor 2 (Homo sapiens)
Sequence (Q5BJF2 whole entry): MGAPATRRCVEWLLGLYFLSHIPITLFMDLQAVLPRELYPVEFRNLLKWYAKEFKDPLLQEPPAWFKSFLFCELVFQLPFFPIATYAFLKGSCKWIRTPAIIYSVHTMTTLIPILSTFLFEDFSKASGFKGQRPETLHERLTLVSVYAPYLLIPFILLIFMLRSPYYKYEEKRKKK
assay_text: Inhibition of sigma-2 receptor (unknown origin)

# molecule, target_under_test, Ki (µM)
data = [
    ("O=C(Nc1ccc(-c2nc(-c3ccc(Cl)cc3)no2)cc1)C1CC(=O)N(Cc2ccco2)C1 (stereo unspecified)", "Sigma intracellular receptor 2 (Homo sapiens)", 3.2),
]

---

assay_text: Cmax in Wistar rat brain at 10 mg/kg, ip measured upto 8 hrs post dose by LC-MS/MS analysis
Type: ADME, organism-based
Design: time < 8 hrs, dose 10 mg/kg, route ip
quantity_kind: Cmax

# compound, result
data = [
    ("O=C(Nc1ccc(-c2nc(-c3ccc(Cl)cc3)no2)cc1)C1CC(=O)N(Cc2ccco2)C1 (stereo unspecified)", "1550 ng/mL"),
]

---

target_under_test: Relaxin-3 receptor 1 (Homo sapiens, UniProt Q9NSD7)
assay_text: Antagonist activity at human RXFP3 expressed in CHO-K1 cells assessed as inhibition of relaxin-3 stimulated ERK1/2 phosphorylation preincubated for 15 mins followed by relaxin-3 addition for 5 mins
Type: functional, cell-based
pIC50: −log10 of the molar value.

# substance, pIC50
measured = [
    ("H-RAAPYGVRLSGREFIRAVIFTSR-NH2", 5.11),
]
